- TEST_DETAILS: clinical
- RUN_PARAMETERS: human, in vivo, iv, Vdss
OBSERVED_PROPERTY: Vd (L/kg)
Report only the number, with the unit L/kg understood.

MOLECULE	UNIT_NAME	Vd
COc1ccc(C[C@@H]2c3cc(OC)c(OC)cc3CC[N@+]2(C)CCC(=O)OCCCCCOC(=O)CC[N@@+]2(C)CCc3cc(OC)c(OC)cc3[C@H]2Cc2ccc(OC)c(OC)c2)cc1OC	L/kg	0.14

## Task Which Vd reading was recorded for the molecule O=c1[nH]c2ccccc2n1CCCN1CCC(n2c(=O)[nH]c3cc(Cl)ccc32)CC1 [DOMPERIDONE] ?
## Result 3.4

## Task Note, next up: C[C@@H](O)[C@H]1C(=O)N2C(C(=O)[O-])=C(SC3Cn4cnc[n+]4C3)[C@H](C)[C@H]12 (some centres undefined) [BIAPENEM]
## Result 0.2

## Task Thanks! And OC(CNCC(O)C1CCc2cc(F)ccc2O1)C1CCc2cc(F)ccc2O1 (centres undefined) [NEBIVOLOL] ?
## Result 11

----------
- TEST_DETAILS: clinical
- RUN_PARAMETERS: human, in vivo, iv, Vdss
Quick list: Vd per entry.
Kindly answer with a numeric value in L/kg, unit omitted.

COMPOUND	UNIT_NAME	Vd
CCCC1O[C@@H]2C[C@H]3[C@@H]4CCC5=CC(=O)C=C[C@]5(C)[C@H]4[C@@H](O)C[C@]3(C)[C@]2(C(=O)CO)O1 (stereo not given in full) [BUDESONIDE]	L/kg	3.9
CCN(CC)CCCC(C)Nc1c2ccc(Cl)cc2nc2ccc(OC)cc12 (stereo not given) [QUINACRINE]	L/kg	45
Cc1ccc(-c2ncc(Cl)cc2-c2ccc(S(C)(=O)=O)cc2)cn1 [ETORICOXIB]	L/kg	1.5
CCCC[C@@H]1CC(=O)[C@]2(O)O[C@@H]3[C@@H](NC)[C@@H](O)[C@@H](NC)[C@H](O)[C@H]3O[C@@H]2O1 [TROSPECTOMYCIN]	L/kg	0.7
CC(Oc1ccccc1)C(=O)N[C@@H]1C(=O)N2[C@@H]1SC(C)(C)[C@@H]2C(=O)O (stereo not given in full) [PHENETHICILLIN]	L/kg	0.3
CC(=O)Nc1nnc(S(N)(=O)=O)s1 [ACETAZOLAMIDE]	L/kg	0.37
Cc1ccc(C(=O)c2cc(O)c(O)c([N+](=O)[O-])c2)cc1 [TOLCAPONE]	L/kg	0.12
Cc1onc(-c2ccccc2)c1C(=O)N[C@@H]1C(=O)N2[C@@H]1SC(C)(C)[C@@H]2C(=O)O [OXACILLIN]	L/kg	0.19
CC[C@H](C)C(=O)O[C@H]1C[C@@H](C)C=C2C=C[C@H](C)[C@H](CC[C@@H]3C[C@@H](O)CC(=O)O3)[C@H]21 [LOVASTATIN]	L/kg	0.87
CCCN1CCCC[C@H]1C(=O)Nc1c(C)cccc1C [ROPIVACAINE]	L/kg	0.75

## Task GET /values?readout=Vd&item= Cc1ccccc1N1C(=O)c2cc(S(N)(=O)=O)c(Cl)cc2NC1C (stereo not given) [METOLAZONE]
## Result 1.6

## Task Also, Cc1cc(O)c2c(=O)c3c(O)cc(O)c4c5c(O)cc(O)c6c(=O)c7c(O)cc(CO)c8c1c2c(c34)c(c65)c78 [PSEUDOHYPERICIN] please.
## Result 0.56

## Task Item: O=C(O)C(Cl)Cl [DICHLOROACETIC ACID]
## Result 0.19

## Task One more compound: COc1cc2ncnc(Nc3ccc(F)c(Cl)c3)c2cc1OCCCN1CCOCC1 [GEFITINIB]
## Result 23

## Task Now the compound COc1cc(CC(=O)NCC(=O)N(CCC(=O)O)Cc2ccc(OC)c(OC)c2)ccc1NC(=O)Nc1ccccc1C
## Result 0.25

----------
- TEST_DETAILS: clinical
- RUN_PARAMETERS: human, in vivo, iv
OBSERVED_PROPERTY: fraction unbound
Lab note: jot the number down without any unit.

> print(dat)
                                   molecule  result.number
1  CN(C)CCCN1c2ccccc2CCc2ccccc21 [IMIPRAMINE]          0.075
2          Nc1nc(N)c2nc(-c3ccccc3)c(N)nc2n1           0.42
3  O=C1CCc2ccc(OCCCCN3CCN(c4cccc(Cl)c4Cl)CC3)cc2N1 [ARIPIPRAZOLE]           0.01
4  C#C[C@]1(O)C=C[C@H]2[C@@H]3CCC4=CC(=O)CC[C@@H]4[C@H]3CC[C@@]21CC [GESTODENE]          0.023

## Task What does the data say about its fraction unbound? Entry: Cc1ccc(C(=O)c2cc(O)c(O)c([N+](=O)[O-])c2)cc1 [TOLCAPONE]
## Result 0.0012

## Task What do you get for CO/N=C(\C(=O)N[C@@H]1C(=O)N2C(C(=O)O)=C(COC(N)=O)CS[C@H]12)c1ccco1 [CEFUROXIME] ?
## Result 0.12

## Task Further, for CNC1(c2ccccc2Cl)CCCCC1=O (stereo not given) [KETAMINE] ?
## Result 0.47

## Task What about this molecule? CO[C@@]1(NC(=O)C(C(=O)O)c2ccc(O)cc2)C(=O)N2C(C(=O)O)=C(CSc3nnnn3C)CO[C@@H]21 (stereo not given in full) [MOXALACTAM]
## Result 0.39

## Task Next record, please: NCCCCCC(=O)O [AMINOCAPROIC ACID]
## Result 0.92

## Task # repeat for Nc1c(CC(=O)O)cccc1C(=O)c1ccc(Br)cc1 [BROMFENAC]
## Result 0.0011

----------
- TEST_DETAILS: clinical
- RUN_PARAMETERS: human, in vivo, iv, t1/2
Bridge positions count the residues as written; N and C are the ends. Square brackets hold non-standard residues; d marks the D form. Peptide text beside a SMILES is read from it. hArg = N=C(N)NCCCC[C@H](N)C(=O)O; Mpa = O=C(O)CCS
Binary label based on half-life with cut-off 5 h: below gives TRUE, not below gives FALSE.

## Task Is half-life of O=C1c2c(O)ccc(O)c2C(=O)c2c(NCCNCCO)ccc(NCCNCCO)c21 strictly below 5 h?
## Result FALSE

## Task Further, for N=C(N)NCCCC[C@@H]1NC(=O)CCSSC[C@@H](C(N)=O)NC(=O)[C@@H]2CCCN2C(=O)[C@H](Cc2c[nH]c3ccccc23)NC(=O)[C@H](CC(=O)O)NC(=O)CNC1=O [EPTIFIBATIDE] ([Mpa][hArg]GDWPC-NH2; disulfide 1-7) ?
## Result TRUE

## Task Likewise for CCOC(=O)C1(c2ccccc2)CCN(C)CC1 ?
## Result FALSE

## Task // repeat for CNC1(c2ccccc2Cl)CCCCC1=O (centres undefined) and report
## Result TRUE

## Task Queued: COc1cc(NCc2ccc3nc(N)nc(N)c3c2C)cc(OC)c1OC [TRIMETREXATE]
## Result FALSE

## Task And NC(=O)OC[C@@H]1[C@H](NC(=O)/C(=N\OCC(=O)O)c2csc(N)n2)C(=O)N1S(=O)(=O)O ?
## Result TRUE

## Task Also check CC[C@]1(O)C[C@H]2CN(CCc3c([nH]c4ccccc34)[C@@](C(=O)OC)(c3cc4c(cc3OC)N(C=O)[C@H]3[C@@](O)(C(=O)OC)[C@H](OC(C)=O)[C@]5(CC)C=CCN6CC[C@]43[C@@H]65)C2)C1
## Result FALSE

## Task Lookup NS(=O)(=O)c1cc2c(cc1C(F)(F)F)NCNS2(=O)=O [HYDROFLUMETHIAZIDE]
## Result FALSE

## Task Then CC(C)(C)NC(=O)[C@@H]1C[C@@H]2CCCC[C@@H]2CN1C[C@@H](O)[C@H](Cc1ccccc1)NC(=O)[C@H](CC(N)=O)NC(=O)c1ccc2ccccc2n1 ?
## Result FALSE

## Task Next compound: Cc1[nH]c(=O)c(C#N)cc1-c1ccncc1
## Result TRUE

## Task Try CN1[C@@H]2CC[C@H]1C[C@@H](OC(=O)c1c[nH]c3ccccc13)C2 next.
## Result FALSE

## Task // repeat for C[C@@H](CN1CC(=O)NC(=O)C1)N1CC(=O)NC(=O)C1 and report
## Result TRUE

## Task Please answer likewise for CCCCC(=O)N(Cc1ccc(-c2ccccc2-c2nnn[nH]2)cc1)[C@H](C(=O)O)C(C)C
## Result FALSE

## Task Another compound to check: CC#CCC(C)[C@H](O)/C=C/[C@@H]1[C@H]2C/C(=C/CCCC(=O)O)C[C@H]2C[C@H]1O (some centres undefined)
## Result TRUE

## Task // repeat for c1ccc(C2(c3ccccc3)CC2C2=NCCN2)cc1 (centres undefined) and report
## Result FALSE

## Task Moving on to the next compound: COc1ccccc1Oc1c(NS(=O)(=O)c2ccc(C(C)(C)C)cc2)nc(-c2ncccn2)nc1OCCO
## Result TRUE

## Task Then what about the compound Cc1nc2n(c(=O)c1CCN1CCC(c3noc4cc(F)ccc34)CC1)CCCC2 ?
## Result TRUE

## Task Consider next the compound Nc1cc(-c2ccncc2)c[nH]c1=O in the same way.
## Result TRUE
